method.summary: SAD food effect cohort (8 mg/kg with high fat/high calorie meal) pharmacokinetics
Type: in vivo, human
test.conditions: human, plasma; single oral 8 mg/kg, fed; geometric mean (%CV); read-out: Vz/F
quantity.kind: Vd/F

Query: Would you mind telling me what Vd/F value was observed for `C[C@@H]1C[C@H]2[C@@H]3CCC4=CC(=O)C=C[C@]4(C)C3=CC[C@]2(C)[C@@]1(O)C(=O)CO` ?
Response: 2.67 L/kg

###

Test system: white blood cells and subsets (lymphocytes, neutrophils, eosinophils)
method.summary: Differential white blood cell counts (immune suppression), MAD
Type: in vivo, human
test.conditions: MAD 9.0 mg/kg; Day 17 (3 days after last dose); mean
quantity.kind: Eosinophils

Query: # get_value(readout= Eosinophils, system= white blood cells and subsets (lymphocytes, neutrophils, eosinophils)) for `C[C@@H]1C[C@H]2[C@@H]3CCC4=CC(=O)C=C[C@]4(C)C3=CC[C@]2(C)[C@@]1(O)C(=O)CO`
Response: 0.08 10^9/L

###

method.summary: Phase 1 single ascending dose (SAD) pharmacokinetics, fasted
Format: in vivo, human
test.conditions: male, human, plasma; single oral 20 mg/kg, fasted; geometric mean (%CV); read-out: λz (converted)
quantity.kind: k el (s⁻¹)
Just the number please, in s⁻¹, no unit attached.

Query: Would you mind telling me what k el value was observed for C[C@@H]1C[C@H]2[C@@H]3CCC4=CC(=O)C=C[C@]4(C)C3=CC[C@]2(C)[C@@]1(O)C(=O)CO [vamorolone] ?
Response: 4.52e-05

###

method.summary: Phase 1 single ascending dose (SAD) pharmacokinetics, fasted
Format: in vivo, human
test.conditions: male, human, plasma; single oral 3 mg/kg, fasted; geometric mean (%CV)
quantity.kind: AUC(0-t) (ng·h/mL)
Just the number please, in ng·h/mL, no unit attached.

Query: Would you mind telling me what AUC(0-t) value was observed for C[C@@H]1C[C@H]2[C@@H]3CCC4=CC(=O)C=C[C@]4(C)C3=CC[C@]2(C)[C@@]1(O)C(=O)CO [vamorolone] ?
Response: 1580

###

method.summary: SAD food effect cohort (8 mg/kg with high fat/high calorie meal) pharmacokinetics
Assay type: in vivo, human
test.conditions: human, plasma; single oral 8 mg/kg, fed; geometric mean (%CV); read-out: CL/F (converted)
quantity.kind: CL/F (mL/min/kg)
Just the number please, in mL/min/kg, no unit attached.

Query: Would you mind telling me what CL/F value was observed for `C[C@@H]1C[C@H]2[C@@H]3CCC4=CC(=O)C=C[C@]4(C)C3=CC[C@]2(C)[C@@]1(O)C(=O)CO` ?
Response: 13.2

###

method.summary: Phase 1 single ascending dose (SAD) pharmacokinetics, fasted
Type: in vivo, human
test.conditions: male, human, plasma; single oral 1 mg/kg, fasted; geometric mean (%CV); read-out: λz (converted)
quantity.kind: k el (s⁻¹)
Just the number please, in s⁻¹, no unit attached.

Query: Would you mind telling me what k el value was observed for `C[C@@H]1C[C@H]2[C@@H]3CCC4=CC(=O)C=C[C@]4(C)C3=CC[C@]2(C)[C@@]1(O)C(=O)CO` ?
Response: 0.000106

###

System: white blood cells and subsets (lymphocytes, neutrophils, eosinophils)
method.summary: Differential white blood cell counts (immune suppression), MAD
Type: in vivo, human
test.conditions: MAD 1.0 mg/kg; Day 21 follow-up; mean
quantity.kind: Eosinophils

Query: # get_value(readout= Eosinophils, system= white blood cells and subsets (lymphocytes, neutrophils, eosinophils)) for C[C@@H]1C[C@H]2[C@@H]3CCC4=CC(=O)C=C[C@]4(C)C3=CC[C@]2(C)[C@@]1(O)C(=O)CO [vamorolone]
Response: 0.15 10^9/L

###

method.summary: Phase 1 single ascending dose (SAD) pharmacokinetics, fasted
Format: in vivo, human
test.conditions: male, human, plasma; single oral 20 mg/kg, fasted; geometric mean (%CV); read-out: t½ (converted)
quantity.kind: half-life (h)
Just the number please, in h, no unit attached.

Query: Would you mind telling me what half-life value was observed for `C[C@@H]1C[C@H]2[C@@H]3CCC4=CC(=O)C=C[C@]4(C)C3=CC[C@]2(C)[C@@]1(O)C(=O)CO` ?
Response: 4.26

###

method.summary: Phase 1 single ascending dose (SAD) pharmacokinetics, fasted
Assay type: in vivo, human
test.conditions: male, human, plasma; single oral 3 mg/kg, fasted; geometric mean (%CV); read-out: λz (converted)
Text: This clinical trial was a randomized, double-blind, placebo controlled single ascending (SAD) and multiple ascending (MAD) study to evaluate the safety, tolerability, and pharmacokinetics of vamorolone in health adult subjects. The study protocol and its amendments were reviewed and approved by an Institutional Review Board. […]
quantity.kind: k el (s⁻¹)
Just the number please, in s⁻¹, no unit attached.

Query: Would you mind telling me what k el value was observed for `C[C@@H]1C[C@H]2[C@@H]3CCC4=CC(=O)C=C[C@]4(C)C3=CC[C@]2(C)[C@@]1(O)C(=O)CO` ?
Response: 7.7e-05

###

Test system: white blood cells and subsets (lymphocytes, neutrophils, eosinophils)
method.summary: Differential white blood cell counts (immune suppression), MAD
Assay type: in vivo, human
test.conditions: MAD 3.0 mg/kg; Day 17 (3 days after last dose); mean
quantity.kind: Eosinophils

Query: Would you mind telling me what Eosinophils value was observed for `C[C@@H]1C[C@H]2[C@@H]3CCC4=CC(=O)C=C[C@]4(C)C3=CC[C@]2(C)[C@@]1(O)C(=O)CO` ?
Response: 0.17 10^9/L

###

System: white blood cells and subsets (lymphocytes, neutrophils, eosinophils)
method.summary: Differential white blood cell counts (immune suppression), MAD
Assay type: in vivo, human
test.conditions: MAD 1.0 mg/kg; Day 14 predose; mean
quantity.kind: Eosinophils

Query: Would you mind telling me what Eosinophils value was observed for `C[C@@H]1C[C@H]2[C@@H]3CCC4=CC(=O)C=C[C@]4(C)C3=CC[C@]2(C)[C@@]1(O)C(=O)CO` ?
Response: 0.18 10^9/L

###

method.summary: Phase 1 single ascending dose (SAD) pharmacokinetics, fasted
Format: in vivo, human
test.conditions: male, human, plasma; single oral 0.3 mg/kg, fasted; geometric mean (%CV)
quantity.kind: AUC(0-inf) (ng·h/mL)
Just the number please, in ng·h/mL, no unit attached.

Query: Would you mind telling me what AUC(0-inf) value was observed for C[C@@H]1C[C@H]2[C@@H]3CCC4=CC(=O)C=C[C@]4(C)C3=CC[C@]2(C)[C@@]1(O)C(=O)CO [vamorolone] ?
Response: 170

###

System: white blood cells and subsets (lymphocytes, neutrophils, eosinophils)
method.summary: Differential white blood cell counts (immune suppression), MAD
Assay type: in vivo, human
test.conditions: MAD 1.0 mg/kg; Day 12 predose; mean
quantity.kind: Eosinophils

Query: Would you mind telling me what Eosinophils value was observed for `C[C@@H]1C[C@H]2[C@@H]3CCC4=CC(=O)C=C[C@]4(C)C3=CC[C@]2(C)[C@@]1(O)C(=O)CO` ?
Response: 0.2 10^9/L

###

method.summary: Phase 1 single ascending dose (SAD) pharmacokinetics, fasted
Type: in vivo, human
test.conditions: male, human, plasma; single oral 1 mg/kg, fasted; geometric mean (%CV); read-out: CL/F (converted)
quantity.kind: CL/F (L/h/kg)
Just the number please, in L/h/kg, no unit attached.

Query: Would you mind telling me what CL/F value was observed for C[C@@H]1C[C@H]2[C@@H]3CCC4=CC(=O)C=C[C@]4(C)C3=CC[C@]2(C)[C@@]1(O)C(=O)CO [vamorolone] ?
Response: 2

###

Test system: white blood cells and subsets (lymphocytes, neutrophils, eosinophils)
method.summary: Differential white blood cell counts (immune suppression), MAD
Assay type: in vivo, human
test.conditions: MAD 9.0 mg/kg; Screening, baseline; mean
quantity.kind: Eosinophils

Query: Would you mind telling me what Eosinophils value was observed for `C[C@@H]1C[C@H]2[C@@H]3CCC4=CC(=O)C=C[C@]4(C)C3=CC[C@]2(C)[C@@]1(O)C(=O)CO` ?
Response: 0.1 10^9/L

###

Test system: white blood cells and subsets (lymphocytes, neutrophils, eosinophils)
method.summary: Differential white blood cell counts (immune suppression), MAD
Type: in vivo, human
test.conditions: MAD 9.0 mg/kg; Day 12 predose; mean
quantity.kind: Eosinophils

Query: Would you mind telling me what Eosinophils value was observed for `C[C@@H]1C[C@H]2[C@@H]3CCC4=CC(=O)C=C[C@]4(C)C3=CC[C@]2(C)[C@@]1(O)C(=O)CO` ?
Response: 0.12 10^9/L

###

method.summary: Phase 1 single ascending dose (SAD) pharmacokinetics, fasted
Type: in vivo, human
test.conditions: male, human, plasma; single oral 8 mg/kg, fasted; geometric mean (%CV); read-out: t½ (converted)
quantity.kind: half-life (h)
Just the number please, in h, no unit attached.

Query: Would you mind telling me what half-life value was observed for `C[C@@H]1C[C@H]2[C@@H]3CCC4=CC(=O)C=C[C@]4(C)C3=CC[C@]2(C)[C@@]1(O)C(=O)CO` ?
Response: 3.25

###

method.summary: Phase 1 single ascending dose (SAD) pharmacokinetics, fasted
Format: in vivo, human
test.conditions: male, human, plasma; single oral 3 mg/kg, fasted; median; read-out: Tmax
quantity.kind: Tmax (h)
Just the number please, in h, no unit attached.

Query: Would you mind telling me what Tmax value was observed for `C[C@@H]1C[C@H]2[C@@H]3CCC4=CC(=O)C=C[C@]4(C)C3=CC[C@]2(C)[C@@]1(O)C(=O)CO` ?
Response: 1.75
